Test Summary: in vitro
Stated Conditions: rat, gh3-tre-luc cells, AC50 (uM) modified / 1000
Measured Property: CC50 at 24 h

Examples with answers:
Tell me measured CC50 at 24 h for CCN(CC)CCO [N,N-Diethylethanolamine] please.
> 100 µM

Tell me measured CC50 at 24 h for CC(C)(C)C1(CCc2ccc(Cl)cc2)CO1 (stereo not drawn) please.
> 90 µM

Tell me measured CC50 at 24 h for COCCOCCOC [Diethylene glycol dimethyl ether] please.
> 90 µM

---
Tell me measured CC50 at 24 h for CCC(=O)C1CC(C(C)C)CC=C1C (stereo not drawn) please.
> 90 µM

Tell me measured CC50 at 24 h for CC1=C(C)C(=O)C(CCCCC#CCCCC#CCO)=C(C)C1=O [Docebenone] please.
23.5 µM

Tell me measured CC50 at 24 h for NC(=O)OCC(COC(N)=O)c1ccccc1 [Felbamate] please.
> 90 µM
